- testSystem: the molecule itself
- procedureDetails: SEC; analytical Superdex75 10/300 GL column, 50 mM phosphate buffer pH 7.5 with 20 mM NaCl, room temperature
measurementKind: stoichiometry N

1) ReAV S48A mutant (enzyme, Rhizobium etli (strain CFN 42), inducible L-asparaginase ReAV (AnsA) of Rhizobium etli strain CFN 42; printed length 367 residues; CD spectra indicate incorrect folding or strong structural distortion; source: E. coli BL21 STAR (DE3), mostly in inclusion bodies, soluble part purified as the WT protein; not shown: His6, N-terminal, cleaved) MTPSEDFVVTDRGGIVENSHRVHAAVVDAKGRLLYALGNPTRMTLARAAAKPAQALAILETEGVAGYGFDDADIALMCASHSSEDRHIARTRAMLSKIKAEEADLRCGGHPSLSEMVNRSWIKQDFIPTAVCSNCSGKHVGMLAGARAIGAGTDGYHLPDHPMQGRVKRTVAELCDLDAGDVEWGTDGCNLPTPAFPLDRLGRIYAKLASAADGSDAGEGQSTRCAALAHIFRAMARHPEMVAGEGRYCTMLMRAFDGALVGKLGADASYAIGVRASDATRQLGTDGALGISVKIEDGNLEMLYAVVTELLERLGIGSPDVRSQLASFHHPQRVNTMGVTTGGVSFPFKLRGSKSNVDDPRLAAVAR = 2
